B1: POU domain, class 4, transcription factor 1, residues 266 to 347; numbered along this chain, Q01851 (parent)
chain: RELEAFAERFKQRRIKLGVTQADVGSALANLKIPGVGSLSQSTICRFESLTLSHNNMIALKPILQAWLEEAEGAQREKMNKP

# Variants of: B1
# ASSAY REMARKS: abundance fitness (aPCA) (normalised: wild type 0, dead -1); higher = more abundant; growth selection in yeast, the domain comes from the species named
# MEASUREMENT SETUP: Homo sapiens
PROPERTY MEASURED: abundance fitness

// known answers, use as guide
* P62D | -0.188
* G37N | 0.035
* M57W | -0.289

Query string: Retrieve abundance fitness measured for `E48S` and print it.
Result string: -0.979

Query string: Retrieve abundance fitness measured for `A59T` and print it.
Result string: -0.011

Query string: Retrieve abundance fitness measured for `A5I` and print it.
Result string: 0.184

Query string: Retrieve abundance fitness measured for `E4A` and print it.
Result string: -0.071

Query string: Retrieve abundance fitness measured for `L28Q` and print it.
Result string: -0.628

Query string: Retrieve abundance fitness measured for `V24D` and print it.
Result string: -0.66

Query string: Retrieve abundance fitness measured for `K61P` and print it.
Result string: -1.19

Query string: Retrieve abundance fitness measured for `Q65D` and print it.
Result string: 0.01

Query string: Retrieve abundance fitness measured for `N80A` and print it.
Result string: 0.117

Query string: Retrieve abundance fitness measured for `R46Y` and print it.
Result string: -0.307

Query string: Retrieve abundance fitness measured for `A59E` and print it.
Result string: -0.026
